- Tested on: Wnt5a (protein binding on small-molecule microarray)
- Test: small molecules binding Wnt5a protein – biophysical, small-molecule microarray, 635/667 nm fluorescence, primary screen (AID 1142);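 also: fluorescence read at 667 nm with signal to noise per printed feature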
- Test context: 635 nm fluorescence, higher = more signal
Measure name: composite z-score
Lab note: write the figure by itself, no unit.

Past entries and their recorded results:
CCCNC(=O)[C@@]1(C)c2ccccc2C(=O)N(Cc2ccc(OC(F)(F)F)cc2)[C@H]1c1ccc(CO)cc1: -0.0508
O=C1NC(=O)C2C1C=CC(C(O)c1cccs1)N2Nc1ccccn1 (stereo not given): 0.0343
CN(C)CCCCCCNC(=O)[C@@H]1C[C@@H]2C(=O)N[C@@H](Cc3ccccc3)C(=O)N2[C@@H]1c1cccc(OCCO)c1: 0.154
CC(=O)NCCCC[C@@H]1NC(=O)[C@@H]2C[C@H](C(=O)NCCCCCC[N+](C)(C)C)[C@H](c3cccc(OCCO)c3)N2C1=O: 0.505

Lab note: next compound to report on.
GET /values?readout=composite z-score&item= CCOC(=O)C1=CC[C@@H](c2cccc(Cl)c2)N(S(=O)(=O)c2ccc(C)cc2)[C@H]1c1ccc(C#N)cc1
0.473

###

Each item that follows carries a reported z-score.
- Test: compound effects on hepatocellular carcinoma cell viability – HepG2, calcein-AM fluorescence, 48 h, basal, profiling panel (AID 1164); also: test concentration not given here
- Test context: higher = more signal
Lab note: write the figure by itself, no unit.

Past entries and their recorded results:
O=C(NCc1ccccc1)[C@@H]1c2ccccc2C(=O)N(Cc2cc(F)cc(C(F)(F)F)c2)[C@H]1c1ccc(CO)cc1: 1.37
CCCC[C@@H]1C[C@H]1[C@@H](NC(=O)c1ccccc1)c1ccccc1: -1.02
C=C(CCCC)/C(=C/C[C@@H](OC(=O)c1ccncc1)c1ccc(CO)o1)c1cc(C(=O)OC)ccc1OC: 0.743

Lab note: next molecule to report on.
GET /values?readout=z-score&item= O=C1O[C@H](c2ccccc2)[C@H](c2ccccc2)N2[C@H]1[C@@H](C(=O)N1CCCCCCC1)[C@]1(C(=O)Nc3ccc(C#CC4=CCCCC4)cc31)[C@H]2c1ccc(O)cc1
-0.0827

###

Each item that follows carries a reported composite z-score.
- Test: probe aNOTCH2 binding on compound microarray – biochemical, small-molecule microarray, 635/667 nm fluorescence, primary screen (AID 1121);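 also: score merges feature fluorescence read at 667 nm with its signal to noise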
- Test context: higher = more signal
Lab note: write the figure by itself, no unit.

COCCCNC(=O)[C@@]1(Sc2ccc(C)cc2)CC(=O)N(Cc2ccccc2)[C@@H]1c1ccc(CO)cc1: -0.134
CCCCC(=C=CC[C@H](O)c1ccccc1OCCO)C[C@H](O)c1cc(Cl)cc(Cl)c1O: -0.175
COc1ccccc1CN1C(=O)c2ccccc2[C@](Cc2ccccc2I)(C(=O)NC2CC2)[C@@H]1c1ccc(CO)cc1: -0.0878
O=C1C2C=CC(C(O)c3ccc(B(O)O)cc3)N(Nc3ccc([N+](=O)[O-])cc3)C2C(=O)N1c1ccccc1 (stereo not drawn): -0.0439
OCCCc1cc[n+](Cc2cccc(OC(F)(F)F)c2)cc1: -0.101

GET /values?readout=composite z-score&item= CCOC(=O)C1=CC[C@@H](c2ccccc2)N(S(=O)(=O)c2ccc(C)cc2)[C@H]1c1ccc(C#N)cc1
-0.0158

Input CN(C)CCCN1C(=O)[C@@]2(c3ccc([N+](=O)[O-])cc3)CC(=O)N(C3CCCCC3)[C@@H]2c2ccc(CO)cc21
-0.0455

Input CC1(C)C(=O)C(c2ccccc2)=C2CN3C(=O)N(CCc4ccccc4)C(=O)C3(Cc3ccccc3)C=C21 (stereo not drawn)
0.121
